- Read-out: Monocyte Chemoattractant Protein-1 (MCP1), CCL2 (gene 6347)
- METHOD NOTES: BSK_4H_MCP1: BioMAP Diversity Plus: 4H Assay for Monocyte Chemoattractant Protein-1 (MCP1) Biomarker Activity (AID 2283018)
- CONDITION SET: primary human endothelial cells (HUVEC); actives raise or lower the signal
The source made the active and inactive calls. The calls were made as follows: active = hit-call score of the fitted dose curve at least 0.9, where 1 is the maximum; inactive = score below 0.9.
Write down the outcome that applies. Available outcomes: active, inactive

- CCCCN(CCCC)SN(C)C(=O)Oc1cccc2c1OC(C)(C)C2: active
- CCOS(=O)(=O)OCC: inactive

// param item: O=C(O)C(F)(F)C(F)(F)C(=O)O ; yields the recorded call
inactive

Check the results log: what was the call for O=P1(N(CCCl)CCCl)NCCCO1 (centres undefined) ?
inactive

Which outcome was assigned to CCOP(=S)(OCC)SCSc1ccc(Cl)cc1 in this test?
active

I'd appreciate the recorded outcome for O=P(Oc1ccccc1)(Oc1ccccc1)Oc1ccccc1 from this test.
active

Just curious, what result did O=C(O)C(F)(F)OC(F)(F)C(F)(F)OC(F)(F)F get here?
inactive

Test call, this molecule: CCOP(=S)(OCC)SCS(=O)(=O)CC
inactive

// return assay outcome for C=CC(=O)OCC(CC)(COC(=O)C=C)COC(=O)C=C
active

Per the records of this test, what outcome belongs to COP(N)(=S)OC ?
inactive

Query: recorded result category for O=S1(=O)OCC2C(CO1)C1(Cl)C(Cl)=C(Cl)C2(Cl)C1(Cl)Cl (centres undefined) in this test
active

Short answer needed: outcome of this test for FC(F)(F)C(F)(C(F)(F)F)C(F)(F)C(F)(F)CC1CO1 (centres undefined) ?
inactive
